Data origin, for the record: ChEMBL document CHEMBL4706752

Assay: AUC in cynomolgus monkey at 1 mg/kg, iv
Format: ADME, organism-based, Macaca fascicularis
Set-up: dose 1 mg/kg
Conditions: in vivo
PARAMETER_MEASURED: AUC (µM·h)

>>> recorded_value("C[C@@](O)(CS(C)(=O)=O)C(=O)N[C@@H]1CC[C@@]2(S(=O)(=O)c3ccc(F)cc3)c3ccc(C(F)(C(F)(F)F)C(F)(F)F)nc3CC[C@@H]12")
9

====

Test: Half life in Balb/c mouse at 2 mg/kg, iv
Format: ADME, organism-based
Settings: in vivo
PARAMETER_MEASURED: half-life (h)

>>> recorded_value("C[C@@](O)(CS(C)(=O)=O)C(=O)N[C@@H]1CC[C@@]2(S(=O)(=O)c3ccc(F)cc3)c3ccc(C(F)(C(F)(F)F)C(F)(F)F)nc3CC[C@@H]12")
11

====

Assay: Oral bioavailability in dog at 2 mg/kg
Assay type: ADME, organism-based, Canis lupus familiaris
Conditions: in vivo
PARAMETER_MEASURED: bioavailability (%)

>>> recorded_value("C[C@@](O)(CS(C)(=O)=O)C(=O)N[C@@H]1CC[C@@]2(S(=O)(=O)c3ccc(F)cc3)c3ccc(C(F)(C(F)(F)F)C(F)(F)F)nc3CC[C@@H]12")
72

====

Test: Oral bioavailability in Balb/c mouse at 4 mg/kg
Assay type: ADME, organism-based
Settings: in vivo
PARAMETER_MEASURED: bioavailability (%)

>>> recorded_value("C[C@@](O)(CS(C)(=O)=O)C(=O)N[C@@H]1CC[C@@]2(S(=O)(=O)c3ccc(F)cc3)c3ccc(C(F)(C(F)(F)F)C(F)(F)F)nc3CC[C@@H]12")
101

====

Assay: Metabolic stability in mouse liver microsomes assessed as compound remaining after 10 mins
Assay type: ADME, Microsome
Settings: read-out: Stabilty
List of remaining at 10 min values.
PARAMETER_MEASURED: remaining at 10 min (%)

>>> recorded_value("CC(C)(O)CC(=O)N[C@@H]1CC[C@@]2(S(=O)(=O)c3ccc(F)cc3)c3ccc(C(F)(C(F)(F)F)C(F)(F)F)nc3CC[C@@H]12")
87
>>> recorded_value("C[C@@](O)(CS(C)(=O)=O)C(=O)N[C@@H]1CC[C@@]2(S(=O)(=O)c3ccc(F)cc3)c3ccc(C(F)(C(F)(F)F)C(F)(F)F)nc3CC[C@@H]12")
98
>>> recorded_value("O=C(C1CCS(=O)(=O)CC1)N1CC[C@@]2(S(=O)(=O)c3ccc(F)cc3)c3ccc(C(F)(C(F)(F)F)C(F)(F)F)cc3CC[C@@H]12")
100
>>> recorded_value("CC(C)(O)CC(=O)N[C@@H]1CC[C@@]2(S(=O)(=O)c3ccc(F)cc3)c3ccc(C(F)(C(F)(F)F)C(F)(F)F)cc3CC[C@@H]12")
86
>>> recorded_value("O=C(C1CCS(=O)(=O)CC1)N1CC[C@@]2(S(=O)(=O)c3ccc(F)cc3)c3ccc(C(F)(C(F)(F)F)C(F)(F)F)nc3CC[C@@H]12")
91
>>> recorded_value("N#CCCN1C(=O)CC[C@H]1C(=O)N1CC[C@@]2(S(=O)(=O)c3ccc(F)cc3)c3ccc(C(F)(C(F)(F)F)C(F)(F)F)nc3CC[C@@H]12")
83
>>> recorded_value("C[C@](O)(CS(C)(=O)=O)C(=O)N[C@@H]1CC[C@@]2(S(=O)(=O)c3ccc(F)cc3)c3ccc(C(F)(C(F)(F)F)C(F)(F)F)cc3CC[C@@H]12")
83
>>> recorded_value("O=C(C1CCS(=O)(=O)CC1)N1CC[C@@]2(S(=O)(=O)c3ccc(F)cc3)c3cnc(C(F)(C(F)(F)F)C(F)(F)F)cc3CC[C@@H]12")
49
>>> recorded_value("N#CCCN1C(=O)CC[C@H]1C(=O)N1CC[C@@]2(S(=O)(=O)c3ccc(F)cc3)c3ccc(C(F)(C(F)(F)F)C(F)(F)F)cc3CC[C@@H]12")
85
>>> recorded_value("N#CCCN1C(=O)CC[C@H]1C(=O)N1CC[C@@]2(S(=O)(=O)c3ccc(F)cc3)c3ncc(C(F)(C(F)(F)F)C(F)(F)F)cc3CC[C@@H]12")
82
>>> recorded_value("CC(C)(O)C(=O)N[C@@H]1CC[C@@]2(S(=O)(=O)c3ccc(F)cc3)c3ccc(C(F)(C(F)(F)F)C(F)(F)F)nc3CC[C@@H]12")
100
>>> recorded_value("O=C(C1CCS(=O)(=O)CC1)N1CC[C@@]2(S(=O)(=O)c3ccc(F)cc3)c3ncc(C(F)(C(F)(F)F)C(F)(F)F)cc3CC[C@@H]12")
96
>>> recorded_value("N#CCCN1C(=O)CC[C@H]1C(=O)N1CC[C@@]2(S(=O)(=O)c3ccc(F)cc3)c3cnc(C(F)(C(F)(F)F)C(F)(F)F)cc3CC[C@@H]12")
69
>>> recorded_value("C[C@](O)(CS(C)(=O)=O)C(=O)N[C@@H]1CC[C@@]2(S(=O)(=O)c3ccc(F)cc3)c3ccc(C(F)(C(F)(F)F)C(F)(F)F)nc3CC[C@@H]12")
100
>>> recorded_value("O=C(N[C@@H]1CC[C@@]2(S(=O)(=O)c3ccc(F)cc3)c3ccc(C(F)(C(F)(F)F)C(F)(F)F)nc3CC[C@@H]12)C1CCS(=O)(=O)CC1")
82
>>> recorded_value("O=C(N[C@@H]1CC[C@@]2(S(=O)(=O)c3ccc(F)cc3)c3ccc(C(F)(C(F)(F)F)C(F)(F)F)cc3CC[C@@H]12)C1CCS(=O)(=O)CC1")
95
>>> recorded_value("C[C@@](O)(CS(C)(=O)=O)C(=O)N[C@@H]1CC[C@@]2(S(=O)(=O)c3ccc(F)cc3)c3ccc(C(F)(C(F)(F)F)C(F)(F)F)cc3CC[C@@H]12")
84
